In this section, each of the compounds is paired with its reported GI50.
Target: Ba/F3-Δ19del/T790M/C797S (Homo sapiens, UniProt P00533, T790M/C797S, cells depend on it, form not given)
Sequence (P00533 with tags, fused parts or gaps DEL746-750/T790M/C797S, form open): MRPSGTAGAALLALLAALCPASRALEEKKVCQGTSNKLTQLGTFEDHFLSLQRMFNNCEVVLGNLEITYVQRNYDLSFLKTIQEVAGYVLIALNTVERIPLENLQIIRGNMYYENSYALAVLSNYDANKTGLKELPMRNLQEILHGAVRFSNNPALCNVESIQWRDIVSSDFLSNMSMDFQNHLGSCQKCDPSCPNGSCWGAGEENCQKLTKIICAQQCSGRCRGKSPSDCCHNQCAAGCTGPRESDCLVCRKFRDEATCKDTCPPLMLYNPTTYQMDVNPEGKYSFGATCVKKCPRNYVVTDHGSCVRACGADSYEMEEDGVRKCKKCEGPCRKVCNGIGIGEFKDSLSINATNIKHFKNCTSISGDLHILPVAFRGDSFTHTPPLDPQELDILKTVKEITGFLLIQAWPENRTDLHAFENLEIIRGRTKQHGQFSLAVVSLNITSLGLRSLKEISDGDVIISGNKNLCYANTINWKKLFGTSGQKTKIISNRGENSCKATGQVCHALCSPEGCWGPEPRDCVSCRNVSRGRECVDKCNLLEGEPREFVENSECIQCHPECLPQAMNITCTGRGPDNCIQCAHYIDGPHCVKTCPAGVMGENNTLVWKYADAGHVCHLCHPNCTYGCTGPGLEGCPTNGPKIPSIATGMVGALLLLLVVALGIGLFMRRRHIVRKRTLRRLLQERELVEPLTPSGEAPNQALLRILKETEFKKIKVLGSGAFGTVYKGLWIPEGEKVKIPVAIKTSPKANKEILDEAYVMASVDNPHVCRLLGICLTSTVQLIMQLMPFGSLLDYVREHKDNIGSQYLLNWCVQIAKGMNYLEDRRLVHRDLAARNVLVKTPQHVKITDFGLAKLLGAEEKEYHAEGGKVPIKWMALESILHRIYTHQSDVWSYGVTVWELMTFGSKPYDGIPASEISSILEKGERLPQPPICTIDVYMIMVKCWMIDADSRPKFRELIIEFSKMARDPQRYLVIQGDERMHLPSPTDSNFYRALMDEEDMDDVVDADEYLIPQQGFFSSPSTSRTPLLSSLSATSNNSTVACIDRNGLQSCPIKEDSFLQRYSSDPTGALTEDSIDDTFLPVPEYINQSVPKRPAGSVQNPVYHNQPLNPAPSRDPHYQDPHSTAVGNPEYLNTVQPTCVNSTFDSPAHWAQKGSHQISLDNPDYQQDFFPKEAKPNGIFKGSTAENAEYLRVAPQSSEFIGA
Assay: Ba/F3-Δ19del/T790M/C797S cells proliferation assay
Format: cell-based
Conditions: cell proliferation, 72 h, CellTiter Glo; class symbols; read-out: BaF3 Δ 19del/T790M/C797S IC50

// below: answered compounds
| smiles.code | GI50 |
| --- | --- |
| C=CC(=O)Nc1cc(Nc2ncc(Cl)c(Nc3ccc4ccccc4c3P(C)(C)=O)n2)ccc1N1CCC2(CC1)CC(N(C)C)C2 | < 10 nM |
| C=CC(=O)Nc1cc(Nc2ncc(Cl)c(Nc3ccccc3P(C)(C)=O)n2)ccc1N1CCN2CCC[C@H]2C1 | 10 to 50 nM |
| C=C(C)C(=O)Nc1cc(Nc2ncc(Cl)c(Nc3ccccc3P(C)(C)=O)n2)ccc1N1CCC2(CC1)CC(N(C)C)C2 | 10 to 50 nM |

The compound listed as C=CC(=O)Nc1cc(Nc2ncc(Br)c(Nc3ccc4nccnc4c3P(C)(C)=O)n2)ccc1N1CCC(N2CCN(C)CC2)CC1 shows GI50 equal to 10 to 50 nM

The compound listed as C=C(F)C(=O)Nc1cc(Nc2ncc(Cl)c(Nc3ccccc3P(C)(C)=O)n2)ccc1N1CCC2(CC1)CC(N(C)C)C2 shows GI50 equal to 10 to 50 nM

* * *

Target: EGFR Δ19del/T790M/C797S (Homo sapiens, UniProt P00533, T790M/C797S, form not given)
Sequence (P00533 with tags, fused parts or gaps DEL746-750/T790M/C797S, form open): as above
Assay: Kinase assay (mobility shift) for EGFR Δ19del/T790M/C797S
Conditions: read-out: EGFR Δ 19del/T790M/C797S IC50
measurement.name: IC50

// below: answered molecules
| smiles.code | IC50 |
| --- | --- |
| C=CC(=O)Nc1cc(Nc2ncc(Cl)c(Nc3ccccc3P(C)(C)=O)n2)ccc1N1CC2(CC(N(C)C)C2)C1 | < 10 nM |
| CN(C)C/C=C/C(=O)Nc1cc(Nc2ncc(Cl)c(Nc3ccccc3P(C)(C)=O)n2)ccc1N1CCC2(CC1)CC(N(C)C)C2 | < 10 nM |

Let us move to another entry and its IC50.
Query C=CC(=O)Nc1cc(Nc2ncc(Cl)c(Nc3ccccc3P(C)(C)=O)n2)ccc1N1CC2(CCC(N(C)C)CC2)C1 on EGFR Δ19del/T790M/C797S (Homo sapiens, UniProt P00533, T790M/C797S, form not given); IC50 returned: < 10 nM

* * *

System: HCC827(Δ19del)
Assay: HCC827 cells proliferation assay
Assay type: cell-based
Conditions: Homo sapiens, HCC827; cell proliferation, 72 h, CellTiter Glo; class symbols; read-out: HCC827 IC50
Protocol: Test 3 H1975 and HCC827 Cells Proliferation Assay a) The medium was preheated in a 37° C. water bath in advance. b) Remove the cryogenic vials from the liquid nitrogen tank, quickly put it into a 37° C. water bath, and completely melt it in 1 min. […] c) The Luminescence signal value was read using a PerkinElmer reader. […] Data were analyzed using GraphPad Prism 6.0 software to obtain a fitted curve of compound activity. […]
pIC50: −log10 of the molar value.
In this section, each of the compounds is paired with its reported pIC50.

// below: answered compounds
| smiles.code | measurement.name | result |
| --- | --- | --- |
| C=CC(=O)Nc1cc(Nc2ncc(Cl)c(Nc3ccccc3P(C)(C)=O)n2)c(OC)cc1N1CCC2(CCC(N(C)C)CC2)CC1 | pIC50 | 7.30 to 8.00 |
| C=CC(=O)Nc1cc(Nc2ncc(Br)c(Nc3ccc4nccnc4c3P(C)(C)=O)n2)ccc1N(C)CCN(C)C | pIC50 | > 8.00 |
| C=CC(=O)Nc1cc(Nc2ncc(F)c(Nc3ccccc3P(C)(C)=O)n2)c(OC)cc1N1CCC(N2CCN(C)CC2)CC1 | pIC50 | 7.30 to 8.00 |
| C=CC(=O)Nc1cc(Nc2ncc(Cl)c(Nc3ccccc3P(C)(C)=O)n2)ccc1N1CCC2(CC1)CC(N(C)C)C2 | pIC50 | > 8.00 |

Let us move to another entry and its pIC50.
The compound listed as C=CC(=O)Nc1cc(Nc2ncc(Cl)c(Nc3ccccc3P(C)(C)=O)n2)c(OC)cc1N1CCC2(CC1)CC(N(C)C)C2 shows pIC50 equal to 7.30 to 8.00
